molecular target: EN PA (Influenza A virus)
# key: entry, value: IC50

{"smiles.notation": "CNC(=O)c1nn(-c2ccccc2-c2cc(Cl)cc(OC)c2)cc(O)c1=O", "IC50": "≥ 1000 nM"}
{"smiles.notation": "CNC(=O)c1nn(CC2(c3cc(C)c4ncccc4c3)CCCC2)cc(O)c1=O", "IC50": "< 100 nM"}
{"smiles.notation": "Cc1cn(C2(Cn3cc(O)c(=O)c(C(=O)NCC(C)(C)CO)n3)CCCC2)c2ncccc12", "IC50": "< 100 nM"}
{"smiles.notation": "CNC(=O)c1nn(Cc2ccccc2-c2ccccc2)cc(O)c1=O", "IC50": "100 to 1000 nM"}

* * *

pIC50: −log10 of the molar value.
The following molecules have recorded pIC50 on UniProtKB P15659.
property.name: pIC50

{"smiles.notation": "COc1ccc(-c2ccccc2)cc1-n1cc(O)c(=O)c(C(=O)O)n1", "reported.measurement": "6.00 to 7.00"}
{"smiles.notation": "CC(C)c1cccc(C2(Cn3cc(O)c(=O)c(C(=O)O)n3)CCCC2)c1", "reported.measurement": "> 7.00"}
{"smiles.notation": "O=C(Nc1ccccc1)c1nn(CC2(c3cccc(C(F)(F)F)c3)CCCC2)cc(O)c1=O", "reported.measurement": "6.00 to 7.00"}
{"smiles.notation": "O=C(O)c1nn(Cc2ccccc2-c2ccccc2)cc(O)c1=O", "reported.measurement": "> 7.00"}
{"smiles.notation": "CC(C)(CO)NC(=O)c1nn(CC2(n3ccc4cccnc43)CCCC2)cc(O)c1=O", "reported.measurement": "> 7.00"}
{"smiles.notation": "CNC(=O)c1nn(CCC(c2ccccc2)c2ccccc2)cc(O)c1=O", "reported.measurement": "6.00 to 7.00"}
{"smiles.notation": "CNC(=O)c1nn(CC2(c3ccc(C)cc3)CC2)cc(O)c1=O", "reported.measurement": "6.00 to 7.00"}
{"smiles.notation": "CON(C)C(=O)c1nn(CC2(n3cc(C)c4cccnc43)CCCC2)cc(O)c1=O", "reported.measurement": "> 7.00"}
{"smiles.notation": "CCCNC(=O)c1nn(CC2(n3cc(C)c4cccnc43)CCCC2)cc(O)c1=O", "reported.measurement": "> 7.00"}
{"smiles.notation": "CNC(=O)c1nn(CCC2c3ccccc3CCc3ccccc32)cc(O)c1=O", "reported.measurement": "6.00 to 7.00"}
{"smiles.notation": "O=C1NCC/C=C/Cc2ccc3ccn(c3c2)C2(CCCC2)Cn2cc(O)c(=O)c1n2", "reported.measurement": "6.00 to 7.00"}
{"smiles.notation": "CNC(=O)c1nn(CC2(n3cc(Cl)c4cccnc43)CCCC2)cc(O)c1=O", "reported.measurement": "> 7.00"}
{"smiles.notation": "Cc1cccc(C)c1-n1cc(O)c(=O)c(C(=O)O)n1", "reported.measurement": "6.00 to 7.00"}
{"smiles.notation": "O=C(O)c1nn(Cc2ccccc2)cc(O)c1=O", "reported.measurement": "6.00 to 7.00"}
{"smiles.notation": "CS(=O)(=O)Nc1cccc(-n2cc(O)c(=O)c(C(=O)O)n2)c1", "reported.measurement": "6.00 to 7.00"}
{"smiles.notation": "CNC(=O)c1nn(CC2(n3cc(C(N)=O)c4cccnc43)CCCC2)cc(O)c1=O", "reported.measurement": "> 7.00"}
{"smiles.notation": "CNC(=O)c1nn(-c2ccccc2-c2ccc3c(ccn3C)c2)cc(O)c1=O", "reported.measurement": "≤ 6.00"}
{"smiles.notation": "CNC(=O)c1nn(CC2(c3cccc(C(C)C)c3)CCCC2)cc(O)c1=O", "reported.measurement": "> 7.00"}
{"smiles.notation": "CNC(=O)c1nn(CC2(n3ccc4ccc(C)nc43)CCCC2)cc(O)c1=O", "reported.measurement": "> 7.00"}
{"smiles.notation": "CNC(=O)c1nn(CC2(c3ccccc3)CC(C)(C)C2)cc(O)c1=O", "reported.measurement": "> 7.00"}
{"smiles.notation": "CNC(=O)c1nn(CC2(c3ccc4ncccc4c3)CCCC2)cc(O)c1=O", "reported.measurement": "> 7.00"}
{"smiles.notation": "CCNC(=O)c1nn(CC2(n3cc(C)c4cccnc43)CCCC2)cc(O)c1=O", "reported.measurement": "> 7.00"}
{"smiles.notation": "CNC(=O)c1nn(CC2(n3cc(C)c4cccnc43)CCCC2)cc(OC(=O)C(C)C)c1=O", "reported.measurement": "> 7.00"}
{"smiles.notation": "CNC(=O)c1nn(-c2ccccc2-c2ccccc2OC2CCCC2)cc(O)c1=O", "reported.measurement": "6.00 to 7.00"}
{"smiles.notation": "CNC(=O)c1nn(CC2(n3cc(C(F)(F)F)c4cccnc43)CCCC2)cc(O)c1=O", "reported.measurement": "> 7.00"}
{"smiles.notation": "CC1(C)CC(Cn2cc(O)c(=O)c(C(=O)NCc3ccc(F)c(Cl)c3)n2)(c2ccccc2)C1", "reported.measurement": "> 7.00"}
{"smiles.notation": "O=C(NC1CC1)c1nn(CC2(c3cc(C(F)(F)F)cc(C(F)(F)F)c3)CCCC2)cc(O)c1=O", "reported.measurement": "6.00 to 7.00"}
{"smiles.notation": "CNC(=O)c1nn(CC(C)(C)c2cccc(C(F)(F)F)c2)cc(O)c1=O", "reported.measurement": "> 7.00"}
{"smiles.notation": "N#Cc1ccc(-c2ccccc2-n2cc(O)c(=O)c(C(=O)O)n2)cc1", "reported.measurement": "6.00 to 7.00"}
{"smiles.notation": "CNC(=O)c1nn(CC2(n3cnc4cncnc43)CCCC2)cc(O)c1=O", "reported.measurement": "6.00 to 7.00"}
{"smiles.notation": "O=C(O)c1nn(-c2ccc(C(F)(F)F)cc2)cc(O)c1=O", "reported.measurement": "6.00 to 7.00"}
{"smiles.notation": "NC(=O)c1nn(CC2(c3cccc(C(F)(F)F)c3)CC2)cc(O)c1=O", "reported.measurement": "6.00 to 7.00"}
{"smiles.notation": "CCOC(=O)Oc1cn(CC2(n3cc(C)c4cccnc43)CCCC2)nc(C(=O)NC)c1=O", "reported.measurement": "> 7.00"}
{"smiles.notation": "CCOC(=O)c1nn(CC2(c3cc(C(F)(F)F)cc(C(F)(F)F)c3)CCCC2)cc(O)c1=O", "reported.measurement": "6.00 to 7.00"}
